- experimental_target: REFACTO® factor VIII-like polypeptide (amino acids 1-743 and 1638 through 2332 of human factor VIII) (human) (UniProt P00451)
- Sequence (P00451 20-762, chain 1 of 2): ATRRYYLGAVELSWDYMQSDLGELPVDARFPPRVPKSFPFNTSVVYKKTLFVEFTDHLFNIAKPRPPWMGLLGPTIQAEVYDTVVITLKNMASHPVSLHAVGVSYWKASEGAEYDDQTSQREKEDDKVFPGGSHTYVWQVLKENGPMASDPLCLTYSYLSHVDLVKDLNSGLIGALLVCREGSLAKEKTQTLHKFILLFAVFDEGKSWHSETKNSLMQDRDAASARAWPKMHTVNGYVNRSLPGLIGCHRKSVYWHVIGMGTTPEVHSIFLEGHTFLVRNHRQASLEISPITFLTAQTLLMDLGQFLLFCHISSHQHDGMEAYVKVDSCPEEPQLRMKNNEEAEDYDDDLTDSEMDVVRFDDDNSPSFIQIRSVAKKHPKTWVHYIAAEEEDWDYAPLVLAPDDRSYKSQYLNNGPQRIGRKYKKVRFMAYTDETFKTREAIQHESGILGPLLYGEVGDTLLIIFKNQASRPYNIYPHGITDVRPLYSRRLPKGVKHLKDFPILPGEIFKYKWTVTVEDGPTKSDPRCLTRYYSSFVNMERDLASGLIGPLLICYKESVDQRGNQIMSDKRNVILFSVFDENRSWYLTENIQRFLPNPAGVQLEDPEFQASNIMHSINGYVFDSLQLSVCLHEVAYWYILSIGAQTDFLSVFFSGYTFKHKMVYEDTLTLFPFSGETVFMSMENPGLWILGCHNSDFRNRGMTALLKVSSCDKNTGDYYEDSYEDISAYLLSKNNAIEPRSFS
- Sequence (P00451 1657-2351, chain 2 of 2): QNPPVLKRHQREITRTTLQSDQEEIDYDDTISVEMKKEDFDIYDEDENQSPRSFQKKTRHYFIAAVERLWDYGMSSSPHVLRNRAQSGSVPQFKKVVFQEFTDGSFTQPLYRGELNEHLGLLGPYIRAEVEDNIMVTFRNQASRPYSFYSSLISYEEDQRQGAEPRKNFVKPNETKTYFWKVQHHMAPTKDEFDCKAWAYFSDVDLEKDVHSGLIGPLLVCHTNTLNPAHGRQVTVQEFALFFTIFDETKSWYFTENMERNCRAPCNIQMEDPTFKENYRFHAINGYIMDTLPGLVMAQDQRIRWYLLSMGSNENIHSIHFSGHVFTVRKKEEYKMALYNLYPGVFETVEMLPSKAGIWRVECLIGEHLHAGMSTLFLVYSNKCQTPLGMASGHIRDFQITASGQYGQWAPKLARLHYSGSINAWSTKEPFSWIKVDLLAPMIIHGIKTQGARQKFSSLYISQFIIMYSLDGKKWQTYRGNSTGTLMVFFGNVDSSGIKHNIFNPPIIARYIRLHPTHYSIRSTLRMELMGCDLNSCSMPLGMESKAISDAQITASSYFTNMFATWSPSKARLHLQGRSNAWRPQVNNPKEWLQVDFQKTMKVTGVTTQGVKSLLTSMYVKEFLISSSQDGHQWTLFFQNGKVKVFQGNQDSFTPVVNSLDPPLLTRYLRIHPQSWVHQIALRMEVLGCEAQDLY
- test_method_notes: phage ELISA, anti-M13-HRP
quantity_name: ELISA signal (OD630)

binder | endpoint_result
RGCGSWLRPCLD [TN8 isolate 05 (phage-displayed peptide, SEQ ID NO: 11)] | 0.2
HPCGSWLHPCAA [TN8 isolate 04 (phage-displayed peptide, SEQ ID NO: 12)] | 0.3
HRCGSWLHPCLA [TN8 isolate 11/G10 (phage-displayed peptide, SEQ ID NO: 21)] | 0.3
PHCNWLFPCSL [TN7 isolate D03 (phage-displayed peptide, SEQ ID NO: 6)] | 0.2
FCWVFPFHHCF [TN9 isolate 06 (phage-displayed peptide, SEQ ID NO: 30)] | 0.3
HPCGSWLRPCLH [TN8 isolate 10 (phage-displayed peptide, SEQ ID NO: 10)] | 1
HLCGAWFRPCDA [TN8 isolate 02 (phage-displayed peptide, SEQ ID NO: 16)] | 0.4
FGCSWLFPCPF [TN7 isolate A08 (phage-displayed peptide, SEQ ID NO: 5)] | 0.4

Where do the numbers come from? From patent US20140221611A1.
